src = PubChem BioAssay AID1963830

Measured viability, T/C, listed per entry for reference.
System: 922993-354-T-J3-PDC complex spheroid viability;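 further: spheroids exposed to the agents for one week; 100% = DMSO vehicle control wells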
Test: Anticancer human tumor 922993-354-T-J3-PDC patient-derived endometrial carcinoma cell line growth inhibition [POLQ]
Conditions: second compound 0.316 µM; first compound 10 µM; stronger effect = lower value
Your answer should be a plain number; it is taken to be in %.

// returns viability, T/C for COc1cc(C2c3cc4c(cc3C(OC3OC5COC(C)OC5C(O)C3O)C3COC(=O)C23)OCO4)cc(OC)c1O (stereo not given) + COC1C(OC(N)=O)C(O)C(Oc2ccc3c(O)c(NC(=O)c4ccc(O)c(CC=C(C)C)c4)c(=O)oc3c2C)OC1(C)C with 922993-354-T-J3-PDC complex spheroid viability; value = 46.4

The value of viability, T/C recorded for O=C(Nc1ccc(O)c(NS(=O)(=O)c2ccc(F)cc2)c1)c1ccc(-c2ccccc2)cc1 + Cc1cccc(N(C)C(=O)C2C(O)CCN2c2nc(C)cc(C(F)(F)F)c2C#N)c1 when tested on 922993-354-T-J3-PDC complex spheroid viability reads 103

Lab note: molecule COc1cc(C2c3cc4c(cc3C(OC3OC5COC(C)OC5C(O)C3O)C3COC(=O)C23)OCO4)cc(OC)c1O (stereo not given) + Nc1ccc(C#CCN(C(=O)Cc2ncc(C(F)(F)F)cc2C(F)(F)F)c2ccc(F)cc2)nn1 tested on 922993-354-T-J3-PDC complex spheroid viability; recorded viability, T/C was 76

Here CCc1cc2c(N3CCc4c(cc(Cn5ccnc5)cc4-c4cn(C)nc4C(F)(F)F)C3=O)ccnc2c(OC)n1 + Cc1cccc(N(C)C(=O)C2C(O)CCN2c2nc(C)cc(C(F)(F)F)c2C#N)c1 was tested on 922993-354-T-J3-PDC complex spheroid viability, and its viability, T/C came to 99.5

Measured viability, T/C (922993-354-T-J3-PDC complex spheroid viability), entry C=CC(=O)N1CCN(c2nc(=O)n(-c3c(C)ccnc3C(C)C)c3nc(-c4c(O)cccc4F)c(F)cc23)C(C)C1 (stereo not given) + COC1C(OC(N)=O)C(O)C(Oc2ccc3c(O)c(NC(=O)c4ccc(O)c(CC=C(C)C)c4)c(=O)oc3c2C)OC1(C)C : 99.6

GET /values?item= O=c1[nH]cc(F)c(=O)[nH]1 + Cc1cccc(N(C)C(=O)C2C(O)CCN2c2nc(C)cc(C(F)(F)F)c2C#N)c1 &system= 922993-354-T-J3-PDC complex spheroid viability returns viability, T/C: 14.8

Field viability, T/C (922993-354-T-J3-PDC complex spheroid viability), entry COc1cccc2c1C(=O)c1c(O)c3c(c(O)c1C2=O)CC(O)(C(=O)CO)CC3OC1CC(N)C(O)C(C)O1 (stereo not given) + Nc1ccc(C#CCN(C(=O)Cc2ncc(C(F)(F)F)cc2C(F)(F)F)c2ccc(F)cc2)nn1 : 32.1

Item CC(C)n1c(=O)n(C)c2cnc3cc(F)c(-c4ccc(OCCCN5CCCCC5)nc4)cc3c21 + Nc1ccc(C#CCN(C(=O)Cc2ncc(C(F)(F)F)cc2C(F)(F)F)c2ccc(F)cc2)nn1 ; assay system 922993-354-T-J3-PDC complex spheroid viability; viability, T/C reported as 80.1

Form: item C#Cc1c(F)ccc2cc(O)cc(-c3ncc4c(N5CC6CCC(C5)N6)nc(OCC56CCCN5CC(F)C6)nc4c3F)c12 (stereo not given) + Cc1cccc(N(C)C(=O)C2C(O)CCN2c2nc(C)cc(C(F)(F)F)c2C#N)c1 ; test system 922993-354-T-J3-PDC complex spheroid viability; viability, T/C: 91.7

With 922993-354-T-J3-PDC complex spheroid viability as the test system, COc1cc2cc(C(=O)CCC(=O)O)sc2cc1OC + Cc1cccc(N(C)C(=O)C2C(O)CCN2c2nc(C)cc(C(F)(F)F)c2C#N)c1 showed viability, T/C of 91.3
